Recorded binding relative to P54AR4-83v2 parent by entry
# ASSAY TARGET: EGFR (form used in the assay not stated) (human, UniProt P00533 25-645, limits assumed)
# MEASUREMENT DESCRIPTION: ELISA, NEM conjugate, 100 nM
The reply should be a number in ratio, with the unit left off.

P54AR4-83v2 S89C, NEM conjugate (designed binder, not shown: small tags and cut ends, N-ethyl maleimide (NEM) on Cys 89) LPAPKNLVVSEVTEDSARLSWDDPWAFYESFLIQYQESEKVGEAIVLTVPGSERSYDLTGLKPGTEYTVSIYGVHNVYKDTNMRGLPLCAIFTT; 1.02

Please turn your attention to the following entry.
So, P54AR4-83v2 V77C, NEM conjugate (designed binder, not shown: small tags and cut ends, N-ethyl maleimide (NEM) on Cys 77) LPAPKNLVVSEVTEDSARLSWDDPWAFYESFLIQYQESEKVGEAIVLTVPGSERSYDLTGLKPGTEYTVSIYGVHNCYKDTNMRGLPLSAIFTT ? Its binding relative to P54AR4-83v2 parent was 0
